test system: OVCAR-5; test: NCI tumour cell line growth inhibition, 48 h
The source made the active and inactive calls. Cut-off read from the data, not from the text of the source: active = GI50 up to about 1.1 µM and inactive = higher.
Measured GI50 values are reported for all entries that follow.

{"COMPOUND": "O=CN1CCN(C(=O)c2ccc(Cl)cc2)C1=S", "TESTED_TARGET": "OVCAR-5", "GI50": "17.4 µM (inactive)"}
{"COMPOUND": "Nc1nc(N)c(-c2ccccc2)c(CCC(=O)Nc2ccc(Cl)cc2)n1", "TESTED_TARGET": "OVCAR-5", "GI50": "> 100 µM (inactive)"}
{"COMPOUND": "CCCC(=O)NC(NC1CCCCC1)(C(=O)OCC)C(F)(F)F (stereo not given)", "TESTED_TARGET": "OVCAR-5", "GI50": "> 100 µM (inactive)"}
{"COMPOUND": "Brc1ccc2[nH]cc([C@H]3CN[C@@H](c4c[nH]c5ccc(Br)cc45)CN3)c2c1", "TESTED_TARGET": "OVCAR-5", "GI50": "2.75 µM (inactive)"}
{"COMPOUND": "CC(C)(C)OC(=O)NCC(c1c[nH]c2cc(Br)ccc12)c1c[nH]c2cc(Br)ccc12", "TESTED_TARGET": "OVCAR-5", "GI50": "15.5 µM (inactive)"}
